# TEST SYSTEM: T1, full-length mouse CD70 with C-terminal V5 tag (mouse, UniProt O55237 1-195)
# T1 construct: On transfected CHO cells; also called murine CD70
# T1 sequence: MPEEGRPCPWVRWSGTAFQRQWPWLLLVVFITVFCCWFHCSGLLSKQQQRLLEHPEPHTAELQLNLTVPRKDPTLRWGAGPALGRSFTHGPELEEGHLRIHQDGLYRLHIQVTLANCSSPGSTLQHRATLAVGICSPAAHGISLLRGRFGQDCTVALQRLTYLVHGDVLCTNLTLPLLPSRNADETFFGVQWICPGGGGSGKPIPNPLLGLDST
# TEST NAME: FACS on CHO cells, periplasmic scFv
MEASURED PARAMETER: binding result

[[record]]
binder = "CD70-39 (scFv, As m32) scFv: EVQLLESGGGVVQPGRSLRLSCAASGFTFSSYAMSWVRQAPGKGLEWVSAISGSGGGTFYADSVEGRFTISRDNSKNTLYLQMNSLRAEDTAVYYCARHDYSNYPYFDYWGLGTLVTVSSGGGGSGGGGSGGGGSEIVLTQSPGTLSLSPGERATLSCRASQSVRSSYLAWYQQKPGQAPRLLIYGASSRATGIPDRFSGSGSGTDFTLTISRLEPEDFAVYSCQQYGDLPFTFGPGTKVEIK"
measured_parameter = "binding result"
measured_value = "no binding"

[[record]]
binder = "CD70-21 (scFv, As m32) scFv: EVQLLESGGGMVQPGGSLRLSCAASGFTFSTYAMSWVRQAPGKGLEWVSAISGSGGRTFYADSVEGRFTISRDNSKNTLYLQMNSLRAEDTAVYYCAKHDYSNYPYFDYWGQGTLVTVSSGGGGSGGGGSGGGGSEIVLTQSPGTLSLSPGERATLSCRASQSVRSTYLAWYQQKPGQAPRLLIYGASSRATGIPDRFSGSGSGTDFTLTISRLEPEDFAVYSCQQYGDLPFTFGPGTKLEIK"
measured_parameter = "binding result"
measured_value = "no binding"

[[record]]
binder = "CD70-1 (scFv) scFv: QVQLVESGGGVVQPGRSLRLSCAASGFTFSTYGMHWVRQAPGKGLEWVAVIWYDGSNKYYGDSVKGRFTISRDNSKNTLYLQMNSLRAEDTAVYYCARDNSHYYYGMDVWGQGTTVTVSSGGGGSGGGGSGGGGSQSVLTQPPSVSGAPGQRVTISCTGSSSNIGAGYDVNWYQQFPGTAPKLLIYVNNNRPSGVPDRFSGSTSGTSASLAITGLQAEDEADYYCQSYDTSLSASVFGGGTRLTVLS"
measured_parameter = "binding result"
measured_value = "no binding"

